- Test Protocol: reduction of polyQ htt aggregates in cells – imaging, exon1htt(103Q)mCFP cells, high-content imaging, primary screen (AID 483);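 further: compound exposure lasted 3 days before fixation; percent of the per-plate median nuclei count of sample wells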
- Condition Details: exon1htt(103Q)mCFP cell line, aggregate imaging, at 2 µM; measured here: cell count, toxicity
Readout: nuclei count (%)

# Compound, Reading
data = [
    ("c1ccc2c(c1)nc(-c1ccncc1)n1nnnc21", 104),
    ("O=C(c1ccco1)N1CCN(S(=O)(=O)c2ccc(C3CCCCC3)cc2)CC1", 102),
    ("CC1CCN(S(=O)(=O)c2ccc(Br)s2)CC1", 102),
    ("CC(C)(C)NC(=O)Cn1nnnc1-c1nonc1N", 120),
    ("COCCNC(=O)c1ccc(CS(=O)(=O)c2c(Cl)cccc2Cl)o1", 103),
    ("COc1ccc(OCc2cccc(C(=O)O)c2)cc1", 55.9),
    ("Cc1ccccc1-c1nc(CN2CCC(C(=O)NCCCN3CCCC3)CC2)c(C)o1", 101),
    ("COc1ccccc1N1CCN(C(=O)C2CCN(S(=O)(=O)c3ccc(F)cc3)CC2)CC1", 108),
    ("O=C(Cn1c(=O)oc2ccccc21)N1CCN(c2ccccc2)CC1", 99.1),
    ("CCn1cc(C2=NOC(C(=O)Nc3c(C)nn(Cc4ccc(F)cc4)c3C)C2)c(C)n1 (stereo unspecified)", 105),
    ("COC(=O)c1ccc(C2C(C#N)=C(N)Oc3cc(C)n(C)c(=O)c32)cc1 (stereo unspecified)", 111),
]

###

- Test Protocol: reduction of polyQ htt aggregates in cells – imaging, exon1htt(103Q)mCFP cells, high-content imaging, primary screen (AID 483);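 further: compound exposure lasted 3 days before fixation; percent of the per-plate median nuclei count of sample wells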
- Condition Details: exon1htt(103Q)mCFP cell line, aggregate imaging, at 2 µM; measured here: cell count, toxicity
// reported nuclei count for each item listed

# Compound, Unit Text, nuclei count
records = [
    ("CCCN1CCN(C(=O)Cn2cccc2C(=O)c2ccccc2)CC1", "%", 109),
    ("Cc1ccnc(NC(=O)C2CCCN(S(=O)(=O)c3cnc[nH]3)C2)c1 (stereo unspecified)", "%", 84.3),
    ("O=C(c1cccnc1)N1CCN(C(=O)c2ccccc2F)CC1", "%", 97.7),
    ("O=C(Nc1ccc(Cl)cc1)N1CCSCC1", "%", 104),
    ("COc1ccc(CCN2C(=O)CCC2(C)C(=O)NCc2cccnc2)cc1OC (stereo unspecified)", "%", 103),
    ("CCCn1c2ccccc2c2nnc(SCC(=O)Nc3ncccn3)nc21", "%", 53.5),
    ("CCCCCc1nnc(NC(=O)Cc2cccs2)s1", "%", 93.5),
    ("Cc1cccc(N2CCN(Cc3c(C)n(C)n(-c4ccccc4)c3=O)CC2)c1C", "%", 92.6),
    ("CCn1c(CSc2nnc(-c3cccnc3)n2-c2ccccc2C)nc2cc(C(=O)O)ccc21", "%", 101),
    ("Cc1cccc(C)c1NC(=O)CC(NCc1ccco1)C(=O)O (stereo unspecified)", "%", 71.3),
    ("Cc1cc(NC(=O)CSc2nc3c(c(-c4cccnc4)c2C#N)CCC3)no1", "%", 96.3),
]

###

- Test System: Voltage-gated potassium channel subunit beta-2 (Rattus norvegicus)
- Test Protocol: inhibitors of rat Kvbeta2 reductase activity – biochemical, NADPH fluorescence, primary screen (AID 622);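 further: slope of raw intensity against log time taken from 70 to 1610 s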
- Condition Details: recombinant KvBeta, 4-cyanobenzaldehyde reduction, at 10 µM, stronger effect = higher value
Readout: fluorescence slope

# Compound, Test System, Reading
measured = [
    ("COc1ccc(C)cc1S(=O)(=O)N(C)CC(=O)Nc1ccc2c(c1)OCCO2", "Voltage-gated potassium channel subunit beta-2 (Rattus norvegicus)", -0.427),
    ("CCOC(=O)NC(=O)CSc1nnc(C)s1", "Voltage-gated potassium channel subunit beta-2 (Rattus norvegicus)", -0.421),
    ("COc1ccc(-c2nc(CS(=O)CC(=O)N3CCCC3)c(C)o2)cc1 (stereo unspecified)", "Voltage-gated potassium channel subunit beta-2 (Rattus norvegicus)", -0.482),
    ("COc1ccc(-n2nnc3c(=O)n(C/C=C/c4ccccc4)cnc32)cc1", "Voltage-gated potassium channel subunit beta-2 (Rattus norvegicus)", -0.218),
    ("COc1ccc(N2CCN(C(=O)CSc3ncnc4c3cnn4-c3ccccc3C)CC2)cc1", "Voltage-gated potassium channel subunit beta-2 (Rattus norvegicus)", -0.506),
    ("O=C(CCc1ccc(S(=O)(=O)N2CCOCC2)cc1)NCCc1ccccn1", "Voltage-gated potassium channel subunit beta-2 (Rattus norvegicus)", -0.568),
]
